# systemTested: T1, human CLDN6, endogenously expressed on cancer cell lines (human, UniProt P56747 1-220)
# T1 construct: also called Endogenous CLDN6+; CLDN6 on ARK2, OVCA429, UMUC4 cells
# T1 sequence: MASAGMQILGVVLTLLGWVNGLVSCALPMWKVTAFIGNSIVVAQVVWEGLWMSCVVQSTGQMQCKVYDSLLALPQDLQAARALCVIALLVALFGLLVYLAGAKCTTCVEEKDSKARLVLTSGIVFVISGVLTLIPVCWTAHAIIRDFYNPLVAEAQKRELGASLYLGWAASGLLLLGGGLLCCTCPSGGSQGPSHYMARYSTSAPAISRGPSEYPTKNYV
# methodDescription: FACS dose curve, labelled mAb, ARK2 cells
Parameter pEC50: see the listing below.
// pEC50 here means minus log10 of the molar concentration (mol/L)

{"binder": "AB12 (antibody, V domains shown, Full-length IgG (ExpiCHO)) VH: EVKLMESGGDLVKPGGSLKLSCAASGFTFSSYAMSWVRQTPEKRLEWVASIRSGGTTYYPDSVKGRFTISRDNARNILYLRMSSLRSEDTAIYYCAKVGGNPYPMDYWGQGTSVTVSS VL: DIQMIQSPSSMFASLGDRVSLSCRASQDIGGNLDWYQQKPGGTIKLLIYSTSNLNSGVPSRFSGSGSGSDYSLTITSLESEDFADYYCLQRNAYPLTFGAGTKLELK", "pEC50": 5.89}
{"binder": "AB18 (antibody, V domains shown, Full-length IgG (ExpiCHO)) VH: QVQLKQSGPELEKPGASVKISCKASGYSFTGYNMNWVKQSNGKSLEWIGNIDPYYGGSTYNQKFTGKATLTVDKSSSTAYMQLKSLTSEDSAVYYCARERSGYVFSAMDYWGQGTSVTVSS VL: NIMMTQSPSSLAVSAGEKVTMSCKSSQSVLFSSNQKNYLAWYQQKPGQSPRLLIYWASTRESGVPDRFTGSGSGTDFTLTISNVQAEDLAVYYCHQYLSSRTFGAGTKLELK", "pEC50": 5.87}

Consider now this further binder.
pEC50 measured on AB3 (antibody, V domains shown, Full-length IgG (ExpiCHO)) VH: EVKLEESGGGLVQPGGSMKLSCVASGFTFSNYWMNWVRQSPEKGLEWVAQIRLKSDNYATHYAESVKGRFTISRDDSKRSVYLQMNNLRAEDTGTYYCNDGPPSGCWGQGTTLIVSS VL: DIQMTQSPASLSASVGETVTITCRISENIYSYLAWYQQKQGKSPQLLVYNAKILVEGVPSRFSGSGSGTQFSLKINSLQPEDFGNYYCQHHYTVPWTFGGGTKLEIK = 5.78
